system: NCI-H23 lung; assay: NCI tumour cell line growth inhibition, 48 h
Each entry below carries its reported TGI.
assay endpoint: TGI

[[record]]
compound = "N#CC(C#N)=C1NN=C(Cl)c2ccccc21"
subject_of_test = "NCI-H23 lung"
observed_measurement = "> 100 µM"

[[record]]
compound = "CC(C)Oc1ccc(-c2nn([C@@H](C)c3oc4ccc(F)cc4c(=O)c3-c3cccc(F)c3)c3ncnc(N)c23)cc1F"
subject_of_test = "NCI-H23 lung"
observed_measurement = "> 100 µM"

[[record]]
compound = "O=S(O)CCCCCSSSCCCCCS(=O)O"
subject_of_test = "NCI-H23 lung"
observed_measurement = "> 100 µM"

[[record]]
compound = "NCCCCCn1c2c(c3ccccc3c1=O)C(=O)c1ccccc1-2"
subject_of_test = "NCI-H23 lung"
observed_measurement = "1.47 µM"

[[record]]
compound = "Cc1ccc(C2CC(c3cccc([N+](=O)[O-])c3)=Nc3ccccc3S2)cc1 (stereo not drawn)"
subject_of_test = "NCI-H23 lung"
observed_measurement = "> 76.4 µM"

[[record]]
compound = "O=NN1CCNC1Cc1ccccc1 (stereo not drawn)"
subject_of_test = "NCI-H23 lung"
observed_measurement = "> 100 µM"

[[record]]
compound = "COc1ccc(/C=C/C2C(C#N)=C(N)OC3=C2C(=O)CCC3)cc1 (stereo not drawn)"
subject_of_test = "NCI-H23 lung"
observed_measurement = "47.7 µM"

[[record]]
compound = "COc1ccc(C2C=C(c3ccc(OC)c(OC)c3)N=C3SC=CN32)c(Br)c1 (stereo not drawn)"
subject_of_test = "NCI-H23 lung"
observed_measurement = "27.3 µM"


---

tested on: MALME-3M melanoma; assay: NCI tumour cell line growth inhibition, 48 h
Each entry below carries its reported TGI.
assay endpoint: TGI

[[record]]
compound = "COc1ccc(C(=S)N(C)NC(=O)CC(=O)NN(C)C(=S)c2ccc(OC)cc2)cc1"
subject_of_test = "MALME-3M melanoma"
assay_endpoint = "TGI"
observed_measurement = "> 100 µM"

[[record]]
compound = "COC(=O)C1=C(C=O)C2C=CC1C2 (stereo not drawn)"
subject_of_test = "MALME-3M melanoma"
assay_endpoint = "TGI"
observed_measurement = "> 100 µM"

[[record]]
compound = "CC1CC2(OC2C)C(=O)OC2CCN(C)C/C=C(/COC(=O)C1(C)O)C2=O (stereo not drawn)"
subject_of_test = "MALME-3M melanoma"
assay_endpoint = "TGI"
observed_measurement = "> 100 µM"


---

tested on: M14 melanoma; experiment: NCI tumour cell line growth inhibition, 48 h; in the data active means GI50 below about 0.43 µM; inactive means the rest
Outcome codes: class 1 (active), class 0 (inactive)

[[record]]
molecule = "Cc1ccc(C2=Nc3c(N)nc(N)nc3NC(c3cccc(Nc4ccnc5cc(C(F)(F)F)ccc45)c3)C2)cc1 (stereo unspecified)"
cat = "class 0"

[[record]]
molecule = "Cn1cc(-c2csc(-c3c[nH]c4ccccc34)n2)c2cnccc21"
cat = "class 0"

[[record]]
molecule = "COc1ccc(/C=C/C2C(C#N)=C(N)OC3=C2C(=O)CCC3)cc1 (stereo unspecified)"
cat = "class 0"

[[record]]
molecule = "CCN(CC)CC(O)CNc1c2ccc(Cl)cc2nc2ccc(OC)cc12 (stereo unspecified)"
cat = "class 0"

[[record]]
molecule = "COc1cc2c3c(n(CCCNC4=NCCS4)c(=O)c2cc1OC)-c1cc2c(cc1C3=O)OCO2"
cat = "class 1"

[[record]]
molecule = "CC(=O)N1CCC(Nc2ncc3cc(Oc4ccc(F)cc4F)c(=O)n(C)c3n2)CC1"
cat = "class 0"


---

Each entry below carries its reported TGI.
tested on: M19-MEL melanoma; assay: NCI tumour cell line growth inhibition, 48 h
assay endpoint: TGI

[[record]]
compound = "CSC1N=CNc2c1sc(=S)n2-c1ccccc1 (centres undefined)"
assay_endpoint = "TGI"
observed_measurement = "> 100 µM"

[[record]]
compound = "CN(C)CC/C(=N\\Nc1ccc(Cl)cc1)c1ccccc1"
assay_endpoint = "TGI"
observed_measurement = "3.2 µM"

[[record]]
compound = "CC(=O)OCC(OC(C)=O)C(OC(C)=O)C(OC(C)=O)C(=O)CNn1c(-c2ccc(C)cc2)nc2ccccc2c1=O (centres undefined)"
assay_endpoint = "TGI"
observed_measurement = "> 100 µM"

[[record]]
compound = "CC(=O)OC12c3ccccc3C1CCCC21OCCCO1 (centres undefined)"
assay_endpoint = "TGI"
observed_measurement = "> 100 µM"

[[record]]
compound = "Nc1nc(N)c2ncn(CCCC(c3ccccc3)P(=O)(O)O)c2n1 (centres undefined)"
assay_endpoint = "TGI"
observed_measurement = "> 100 µM"

[[record]]
compound = "COC(=O)C(=O)C(C(=O)C(=O)Nc1ccc(OC)cc1[N+](=O)[O-])c1nc2ccc([N+](=O)[O-])cc2[nH]c1=O (centres undefined)"
assay_endpoint = "TGI"
observed_measurement = "> 100 µM"

[[record]]
compound = "O=C1C(c2ccc([N+](=O)[O-])cc2)=C(Cl)C(=O)c2c(O)cccc21"
assay_endpoint = "TGI"
observed_measurement = "36 µM"

[[record]]
compound = "CC(C)NC(C)C(C)c1ccccc1 (centres undefined)"
assay_endpoint = "TGI"
observed_measurement = "> 100 µM"

[[record]]
compound = "Cc1ccccc1NC(=O)C(=O)c1c(O)c2ccc(O)cc2oc1=O"
assay_endpoint = "TGI"
observed_measurement = "> 100 µM"

[[record]]
compound = "Cn1cnc([N+](=O)[O-])c1Sc1nc2ccccc2s1"
assay_endpoint = "TGI"
observed_measurement = "24.3 µM"

[[record]]
compound = "COC1O[C@@H]2COC(C)(C)O[C@@H]2C(=O)N1Nc1ccc([N+](=O)[O-])cc1 (some centres undefined)"
assay_endpoint = "TGI"
observed_measurement = "> 100 µM"

[[record]]
compound = "COc1ccc(/C=C2\\CCC(CN3CCOCC3)C2=O)cc1 (centres undefined)"
assay_endpoint = "TGI"
observed_measurement = "30.5 µM"

[[record]]
compound = "CCC1=CCN(c2ccc(C)cc2)OC1c1ccc(OC)cc1 (centres undefined)"
assay_endpoint = "TGI"
observed_measurement = "> 100 µM"

[[record]]
compound = "Cc1csc2nc(-c3ccncc3)cn12"
assay_endpoint = "TGI"
observed_measurement = "> 100 µM"


---

tested on: LOX IMVI melanoma; assay: NCI tumour cell line growth inhibition, 48 h
Each entry below carries its reported TGI.
assay endpoint: TGI

[[record]]
compound = "CN(CCCNC(=O)c1nn(-c2ccccc2)c2c1ccc1ccccc12)CCCNC(=O)c1nn(-c2ccccc2)c2c1ccc1ccccc12"
assay_endpoint = "TGI"
observed_measurement = "2.95 µM"

[[record]]
compound = "N#CNCC(COCc1ccccc1)c1ccccc1 (stereo not given)"
assay_endpoint = "TGI"
observed_measurement = "> 100 µM"

[[record]]
compound = "CC(C)Oc1ccc(-c2nn([C@@H](C)c3oc4ccc(F)cc4c(=O)c3-c3cccc(F)c3)c3ncnc(N)c23)cc1F"
assay_endpoint = "TGI"
observed_measurement = "> 100 µM"

[[record]]
compound = "NNC(=O)c1ccccc1Nc1nc(-c2cccs2)nc2ccc(Br)cc12"
assay_endpoint = "TGI"
observed_measurement = "> 100 µM"

[[record]]
compound = "CCCCCCCCCCCC(=O)NCc1ccc(OC(=O)CCCCCCCCCCC)c(OC)c1"
assay_endpoint = "TGI"
observed_measurement = "> 100 µM"

[[record]]
compound = "O=c1ccccc(-c2ccc(Br)cc2)c1O"
assay_endpoint = "TGI"
observed_measurement = "13.8 µM"

[[record]]
compound = "Cn1c(-c2ccccc2)cc(-c2cccs2)c1-c1ccsc1"
assay_endpoint = "TGI"
observed_measurement = "> 100 µM"

[[record]]
compound = "CCN(CC)CC(O)CNc1c2ccc(Cl)cc2nc2ccc(OC)cc12 (stereo not given)"
assay_endpoint = "TGI"
observed_measurement = "1.79 µM"

[[record]]
compound = "CN1CCCC2[C@@H]3CCC4=C(O)C(=O)CC[C@]4(C)C3CC[C@@]21C (stereo not given in full)"
assay_endpoint = "TGI"
observed_measurement = "> 100 µM"

[[record]]
compound = "Nc1c(C(=O)c2cccc(OC[C@@H](O)CO)c2)cnn1-c1ccc(F)cc1"
assay_endpoint = "TGI"
observed_measurement = "> 25 µM"

[[record]]
compound = "CCOC(=O)[C@H]1Nc2ccc(Cl)cc2[C@H]2CCC[C@@H]12"
assay_endpoint = "TGI"
observed_measurement = "> 100 µM"

[[record]]
compound = "CC1(C)Oc2ccccc2OC1O (stereo not given)"
assay_endpoint = "TGI"
observed_measurement = "> 100 µM"

[[record]]
compound = "Cc1cc(Cl)ccc1OCc1nn2c(CCCCc3nnc4sc(COc5ccc(Cl)cc5C)nn34)nnc2s1"
assay_endpoint = "TGI"
observed_measurement = "> 100 µM"

[[record]]
compound = "O=c1ncc(I)cn1C1CC(O)C(CO)O1 (stereo not given)"
assay_endpoint = "TGI"
observed_measurement = "> 3250 µM"

[[record]]
compound = "Cc1c(C(=O)O)n2c(C)nnc2c2ccccc12"
assay_endpoint = "TGI"
observed_measurement = "> 100 µM"

[[record]]
compound = "COc1cc(S(=O)(=O)Nc2nc(-c3ccc(N4C(=O)/C(=C\\c5cccs5)N=C4c4ccccc4)cc3)cs2)ccc1Cl"
assay_endpoint = "TGI"
observed_measurement = "> 100 µM"

[[record]]
compound = "CCCCC(=O)OC[n+]1ccc(-c2c(COC(=O)NC(C)C)c(COC(=O)NC(C)C)c3n2CCC3)cc1"
assay_endpoint = "TGI"
observed_measurement = "> 100 µM"

[[record]]
compound = "CCC(N)(C(=O)O)C(C)C (stereo not given)"
assay_endpoint = "TGI"
observed_measurement = "> 100 µM"

[[record]]
compound = "COc1cc([C@@H]2c3cc4c(cc3[C@@H](OC3OC5CO[C@@H](c6cccs6)OC5C(O)C3O)[C@H]3COC(=O)[C@H]23)OCO4)cc(OC)c1O (stereo not given in full)"
assay_endpoint = "TGI"
observed_measurement = "4.4 µM"

[[record]]
compound = "OC(CC(CC(O)(C(F)(F)F)C(F)(F)F)=NN=C(CC(O)(C(F)(F)F)C(F)(F)F)CC(O)(C(F)(F)F)C(F)(F)F)(C(F)(F)F)C(F)(F)F"
assay_endpoint = "TGI"
observed_measurement = "> 10 µM"

[[record]]
compound = "O=C1C(Cl)C2(CC(/C=C/c3cccs3)=NN2c2cccc(S(=O)(=O)O)c2)N1c1nc2ccccc2s1 (stereo not given)"
assay_endpoint = "TGI"
observed_measurement = "> 100 µM"

[[record]]
compound = "Cn1nc(-c2cccc(-c3nn(C)c(=NCCO)s3)n2)sc1=NCCO"
assay_endpoint = "TGI"
observed_measurement = "> 100 µM"

[[record]]
compound = "N/C(=N\\N=C/c1c2ccccc2c(Cl)c2ccccc12)NO"
assay_endpoint = "TGI"
observed_measurement = "12.2 µM"

[[record]]
compound = "C[CH2][Sn]([CH2]C)([O]C(=O)c1c(F)cccc1F)[O][Sn]([CH2]C)([CH2]C)[O]C(=O)c1c(F)cccc1F"
assay_endpoint = "TGI"
observed_measurement = "29.9 µM"

[[record]]
compound = "C[C@@H](O)CCC(=O)c1ccoc1"
assay_endpoint = "TGI"
observed_measurement = "> 100 µM"

[[record]]
compound = "CC(=O)Nc1ccc(-c2nnc(SCC(=O)Nc3ccc(Cl)cc3Cl)o2)cc1"
assay_endpoint = "TGI"
observed_measurement = "> 100 µM"

[[record]]
compound = "N#CC1CCCC2SC(F)(F)C(F)(F)C12 (stereo not given)"
assay_endpoint = "TGI"
observed_measurement = "> 100 µM"

[[record]]
compound = "c1ccc2c(c1)Oc1cccc3cccc-2c13"
assay_endpoint = "TGI"
observed_measurement = "> 100 µM"

[[record]]
compound = "CCn1c2ccccc2c2cc(N=Nc3ccc(C#N)cc3)ccc21"
assay_endpoint = "TGI"
observed_measurement = "61.8 µM"

[[record]]
compound = "O=S1OC[C@H](CCCl)O1 (stereo not given in full)"
assay_endpoint = "TGI"
observed_measurement = "> 100 µM"

